IC50 by entry:
- TESTED_SYSTEM: human TDP2 (hTDP2) (Homo sapiens)
- Construct: whole cell extract
- Sequence (O95551 whole entry): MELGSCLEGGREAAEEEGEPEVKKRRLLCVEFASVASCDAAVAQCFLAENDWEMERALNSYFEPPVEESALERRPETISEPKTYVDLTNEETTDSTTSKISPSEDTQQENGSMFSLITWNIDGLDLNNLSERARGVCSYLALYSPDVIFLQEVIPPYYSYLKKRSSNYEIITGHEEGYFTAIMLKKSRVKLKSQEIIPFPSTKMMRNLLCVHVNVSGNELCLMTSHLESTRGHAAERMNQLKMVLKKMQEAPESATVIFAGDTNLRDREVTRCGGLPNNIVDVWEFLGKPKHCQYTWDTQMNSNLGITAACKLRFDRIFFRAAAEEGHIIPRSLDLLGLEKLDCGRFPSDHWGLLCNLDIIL
- TEST_DETAILS: Whole cell extract Tdp2 assay (DT40 TDP1-/- cells complemented with human TDP2)
- RUN_PARAMETERS: whole cell extract 4 μg/mL of DT40 cells expressing hTDP2, 15 min, room temperature; read-out: WCE hTDP2
ASSAY_METRIC: IC50

1) COC(=O)c1sccc1OC(=O)c1c(C)oc2c1C(=O)c1ncccc1C2=O [Compound 62]: 1000 to 12000 nM
2) CCOC(=O)c1c(C(C)C)oc2c1C(=O)c1ncccc1C2=O [Compound 64]: ≤ 1000 nM
3) CC(=O)N1CCN(c2ccc(OC(=O)c3c(C)oc4c3C(=O)c3ncccc3C4=O)cc2)CC1 [Compound 61]: 1000 to 12000 nM
4) Cc1oc2c(c1C(=O)Oc1ccccc1O)C(=O)c1ncccc1C2=O [Compound 13]: 1000 to 12000 nM
5) Cc1oc2c(c1C(=O)Oc1ccccc1)C(=O)c1ncccc1C2=O [Compound 14]: 1000 to 12000 nM
